measured-quantity: melting point

For orientation, consider the following solved cases.
{"columns": ["molecule", "melting point"],
 "data": [
  ["O=C(O)c1cc(-n2c(-c3ccccc3)cc3c2CCCC3)cc(Br)c1O", "209 to 210 °C"],
  ["COc1cc(CO)c(OC)cc1Cl", "89 to 90 °C"],
  ["CSc1cc(=O)c2cc(OC(=O)OC(C)(C)C)c(OC(=O)OC(C)(C)C)cc2s1", "110 to 111 °C"],
  ["CC(C)Nc1cccnc1N1CCN(C(=O)c2ccc(C(=O)N[C@H](CO)C(C)C)cc2)CC1", "82 to 83 °C"]
]}

Challenge: For CC(C)c1csc2[nH]cc(C#N)c(=O)c12 , what is its reported melting point?
Response given: 285 °C

Challenge: For CNc1cccc2c1OC1(CC1)C2=O , what is its reported melting point?
Response given: 98.2 °C

Challenge: For CCc1c(Sc2cc(C)cc(C)c2)n(CC2=CCCC2CO)c(=O)[nH]c1=O (stereo unspecified) , what is its reported melting point?
Response given: 59 to 60 °C

Challenge: For CS(=O)(=O)c1cc([N+](=O)[O-])ccc1OC(F)(F)F , what is its reported melting point?
Response given: 102 to 104 °C

Challenge: For Cc1cc(C)n(-c2ccc(N3CCOCC3)nn2)n1 , what is its reported melting point?
Response given: 119 to 121 °C

Challenge: For Cc1cc(-c2ccc(Cl)cc2)nn2c(=O)[nH]nc12 , what is its reported melting point?
Response given: 278 to 280 °C

Challenge: For Nc1ccc(F)c(-c2cncnc2)c1F , what is its reported melting point?
Response given: 141 to 143 °C

* * *

measured-quantity: melting point (°C)

{"columns": ["compound-string", "melting point / °C"],
 "data": [
  ["Oc1ccc(-c2ccc3ccc(O)cc3c2)cc1", 210],
  ["CC(C)(C)c1cc(C(=O)O)cc(I)c1O", 178]
]}

* * *

measured-quantity: melting point

For orientation, consider the following solved cases.
{"columns": ["compound", "measured-quantity", "recorded-result"],
 "data": [
  ["O=C1OC(c2ccccc2)=NC1=Cc1cccnc1", "melting point", "164 °C"],
  ["CN(C)C=C(C#N)C(=O)c1ccco1", "melting point", "117 to 125 °C"]
]}

Challenge: For O=C(O)c1cn(C2CC2)c2c(F)c(N3CCOC(CN4CCOCC4)C3)c(F)cc2c1=O (stereo unspecified) , what is its reported melting point?
Response given: 171 to 172 °C

Challenge: For CCOC(=O)c1ncn(-c2nc(C)cs2)c1Cl , what is its reported melting point?
Response given: 98 to 101 °C

Challenge: For Cc1cc(=O)c2[nH]c3ccccc3c2s1 , what is its reported melting point?
Response given: 295 to 296 °C

Challenge: For O=[N+]([O-])c1cc(OCc2ccccc2)ccc1Cl , what is its reported melting point?
Response given: 50 to 50.5 °C

* * *

measured-quantity: melting point

{"columns": ["compound", "melting point"],
 "data": [
  ["CCCCN(C)Cc1[nH]c2ccccc2c1CC1C(=O)N(c2ccccc2)N=C1C (stereo not given)", "180 to 200 °C"]
]}

Challenge: For Cc1ccc(NC(=O)c2ccc(CN3CCN(C)CC3)c(C(F)(F)F)c2)cc1Nc1nc(-c2ccncc2)cs1 , what is its reported melting point?
Response given: 226 to 227 °C

Challenge: For O=C(Oc1ccccc1)c1ccc2c(c1)S(=O)(=O)NCN2C1CC1 , what is its reported melting point?
Response given: 160 to 162 °C

Challenge: For Cc1ccc(C(=O)OC(C)(C)C)cc1C=O , what is its reported melting point?
Response given: 53 to 55 °C

Challenge: For CC1(C)C(C(=O)O)C1(C)C , what is its reported melting point?
Response given: 120 °C

Challenge: For CCCCCN(CCCCC)C(=O)C(Cc1ccc(OCC(=O)O)c(C(=O)O)c1)NC(=O)C(Cc1ccccc1)NC(=O)OC(C)(C)C (stereo not given) , what is its reported melting point?
Response given: 87 to 90 °C

Challenge: For CCOC(=O)N(c1cccc(C(F)(F)F)c1)c1ccccc1[N+](=O)[O-] , what is its reported melting point?
Response given: 45 to 48 °C

Challenge: For CSc1cc(C)nc(SC)c1NC(=O)CN1CCN(CCSc2nc3ccccc3o2)CC1 , what is its reported melting point?
Response given: 140 to 141 °C

Challenge: For CCC(=O)c1ccc(SC)cc1 , what is its reported melting point?
Response given: 60 to 61 °C

Challenge: For Nc1ccc2c(c1)C(=O)NC(C(Cl)(Cl)Cl)O2 (stereo not given) , what is its reported melting point?
Response given: 172 to 174 °C

Sourced from a melting point compilation (Tetko et al.; mined from patent text by program, amines drawn as free bases though some values may be those of a salt)
